The measurements presented in this section are drawn from patent US20230064990A1.

# test-summary: Phase 1a/1b study in combination with G and A, pharmacokinetics
# Type: in vivo, human
# test-settings: human, plasma, subcutaneous; Cohort 1 (0.2 mg/kg) N=4
endpoint-name: Tmax (min)
Express the result in min but write the number alone.

Ask: Which Tmax is listed for CCNCCC(O)CNCCCCNCC(O)CCNCC [(S,S)-(HO)2DEHSPM] ?
Reply: 30

====

# test-summary: Phase 1a/1b study in combination with G and A, pharmacokinetics
# Format: in vivo, human
# test-settings: human, plasma, subcutaneous; Cohort 2 (0.4 mg/kg) N=7
endpoint-name: Tmax (min)
Express the result in min but write the number alone.

Ask: Which Tmax is listed for CCNCCC(O)CNCCCCNCC(O)CCNCC [(S,S)-(HO)2DEHSPM] ?
Reply: 30

====

# test-summary: Phase 1a/1b study in combination with G and A, pharmacokinetics
# Type: in vivo, human
# test-settings: human, plasma, subcutaneous; Cohort 3 (0.6 mg/kg) N=5; read-out: Cmax Range
endpoint-name: Cmax

Ask: Which Cmax is listed for CCNCCC(O)CNCCCCNCC(O)CCNCC [(S,S)-(HO)2DEHSPM] ?
Reply: 91.9 to 195 ng/mL

====

# test-summary: Phase 1a/1b study in combination with G and A, pharmacokinetics
# Type: in vivo, human
# test-settings: human, plasma, subcutaneous; Cohort 3 (0.6 mg/kg) N=5
endpoint-name: Tmax (min)
Express the result in min but write the number alone.

Ask: Which Tmax is listed for CCNCCC(O)CNCCCCNCC(O)CCNCC [(S,S)-(HO)2DEHSPM] ?
Reply: 30

====

# test-summary: Phase 1a/1b study in combination with G and A, pharmacokinetics
# Assay type: in vivo, human
# test-settings: human, plasma, sc; Cohort 3 (0.6 mg/kg) N=5; subcutaneous, day 1 of cycle 1; read-out: Cmax Mean
endpoint-name: Cmax
Please make sure the unit comes right after the number.

Ask: Which Cmax is listed for CCNCCC(O)CNCCCCNCC(O)CCNCC [(S,S)-(HO)2DEHSPM] ?
Reply: 147 ng/mL

====

# test-summary: Phase 1a/1b study in combination with G and A, pharmacokinetics
# Assay type: in vivo, human
# test-settings: human, plasma, sc; Cohort 2 (0.4 mg/kg) N=7; subcutaneous, day 1 of cycle 1; read-out: Cmax Mean
endpoint-name: Cmax (µg/mL)
Express the result in µg/mL but write the number alone.

Ask: Which Cmax is listed for CCNCCC(O)CNCCCCNCC(O)CCNCC [(S,S)-(HO)2DEHSPM] ?
Reply: 0.115
